- Target: human HER3-ECD-His (human) (UniProt P21860)
- Method Summary: ELISA on coated human HER3
Measurement Name: OD450 (OD450)
Report the value in OD450 with no unit label.

Below, each entry is followed by its recorded OD450 result.
mHE4 (antibody, V domains shown) VH: EVQLVESGGGLVKPGGSLKLSCAASGFTFSSYVMSWVRQTPEKRLEWVATISDGDSSTYYPDNVKGRFTISRDNAKNNLFLQMSHLKSEDTAMYFCARDKGHGYDEGAFVYWGQGTLVTVSA VL: DIQMTQSPASLSASVEETVTITCRASENIYSYLAWYQQKQGKSPQLLVYNAKTLAEGVPSRFSGSGSGTEFSLKINSLQPEDFGSYYCQNHYGTPYTFGGGTKLEIKQ	2.07
mHE2 (antibody, V domains shown) VH: EVKLQESGPGLVKPSQSLSLTCSVTGYSITSGYYWNWIRQFPGNKLEWMGYISYDGSNNYNPSLKNRISITRDTSKNQFFLKLNSVTTEDTATYYCARMDWDGDAMDYWGQGTSVTVSS VL: DIVLTQSPASLAVSLGQRATISCRASESVDNYGISLMHWYQQKPGQPPKLLIYRASNLESGIPARFSGSGSRTDFTLTINPVETDDVATYYCQQSNKDPPTFGAGTKLELKR	1.96

Next up:
Give its OD450 value. Item: mHE6 (antibody, V domains shown) VH: EVQLQQSGPDLVKPGTSVKMSCKASGYTFTDYYMHWVRQSHGKSLEWIGYINPNNGDAIYNQKFKGKATLTVNKSSTTAYMALRSLTSEDSAVYFCATYDYGGDFYFDVWGTGTTVTVSS VL: DIELTQSPALMSASPGEKVTMTCSASSSVSYMYWYQQKPRSSPKPWIYLTSNLASGVPARFSGSGSGTSYSLTISSMEAEDAATYYCQQWSRNPLTFGAGTKLELKR
2.12
